# Assay info: single-oral-dose pharmacokinetic study, plasma AVA and metabolite concentrations in pediatric hypercholesterolemia stratified by SLCO1B1 c.521T>C genotype
# Assay type: in vivo, human
# Test conditions: human, plasma, oral, 10 mg, Table S3; Tanner Pubic Stage 5; mean (± SD); read-out: AUC0-24
Record form. Attribute: AUC(0-t). Fill in for each entry.
Please respond with the number in ng·h/mL and leave the unit unwritten.

Q) Quick one: AUC(0-t) of CC(C)c1c(C(=O)Nc2ccccc2O)c(-c2ccccc2)c(-c2ccc(F)cc2)n1CCC1CC(O)CC(=O)O1 (stereo not drawn) [2-Hydroxy Atorvastatin Lactone, 2-hydroxyatorvastatin lactone] ?
A) 13.7

Q) Also check CC(C)c1c(C(=O)Nc2ccccc2O)c(-c2ccccc2)c(-c2ccc(F)cc2)n1CC[C@@H](O)C[C@@H](O)CC(=O)O [2-Hydroxy Atorvastatin, 2-hydroxyatorvastatin]
A) 8

Q) Quick one: CC(C)c1c(C(=O)Nc2ccccc2)c(-c2ccccc2)c(-c2ccc(F)cc2)n1CC[C@@H]1C[C@@H](O)CC(=O)O1
A) 8.9
